tested on: HeLa; assay: Antiproliferative activity against human HeLa cells after 24 hrs by SRB assay; format: functional, cell-based
Test readout: IC50 (µM)
Numeric answer only, unit µM assumed.

Sample records with IC50:
O=C1Nc2cc(Br)ccc2/C1=C/c1[nH]nc2c1Cc1ccccc1-2 : 30.7
COc1cc2c(cc1OC)-c1n[nH]c(/C=C3\C(=O)Nc4ccc(Br)cc43)c1C2 : 11.5
O=C1Nc2cc(Cl)ccc2/C1=C/c1[nH]nc2c1Cc1ccccc1-2 : 14.6
COc1ccc2c(c1)-c1n[nH]c(/C=C3\C(=O)Nc4ccc(Br)cc43)c1C2 : 30.9
COc1ccc2c(c1)-c1n[nH]c(/C=C3\C(=O)Nc4ccccc43)c1C2 : 16

Q: # value lookup — system HeLa, readout IC50, item `COc1ccc(/C=C\c2cc(OC)c(OC)c(OC)c2)cc1O`
Result: 1.43

Q: Please give the result for `COc1cc2c(cc1OC)-c1n[nH]c(/C=C3\C(=O)Nc4cc([N+](=O)[O-])ccc43)c1C2` too.
Result: 30.7

Q: Now try `COc1ccc2c(c1)/C(=C/c1[nH]nc3c1Cc1cc(OC)c(OC)cc1-3)C(=O)N2` .
Result: 2.58

Q: Another: `COc1ccc2c(c1)-c1n[nH]c(/C=C3\C(=O)Nc4cc(Br)ccc43)c1C2`
Result: 25.4

====

system: HeLa; experiment: Antiproliferative activity against human HeLa cells after 24 hrs by SRB assay; format: functional, cell-based
Test readout: IC50 (µM)
Give the value in µM but do not write µM after it.

See these solved cases before continuing.
COc1cc2c(cc1OC)-c1n[nH]c(/C=C3\C(=O)Nc4cc(Cl)ccc43)c1C2 : 1.33
COc1cc2c(cc1OC)-c1n[nH]c(/C=C3\C(=O)Nc4cc(Br)ccc43)c1C2 : 20.5
O=C1Nc2ccc(Br)cc2/C1=C/c1[nH]nc2c1Cc1ccccc1-2 : 16.9
COc1ccc2c(c1)-c1n[nH]c(/C=C3\C(=O)Nc4cc(Cl)ccc43)c1C2 : 17
O=C1Nc2ccccc2/C1=C/c1[nH]nc2c1Cc1ccccc1-2 : 11.7

Q: Can you share its IC50? I mean this compound: `O=C1Nc2ccc(Cl)cc2/C1=C/c1[nH]nc2c1Cc1ccccc1-2`
Result: 15.2

====

Documented log10 of IC50 across a set of molecules
test system: HeLa; test: Antiproliferative activity against human HeLa cells after 24 hrs by SRB assay; assay type: functional, cell-based
Please note: log10 values; quantity IC50; unit µM.

# example entries with known answers
COc1cc2c(cc1OC)-c1n[nH]c(/C=C3\C(=O)Nc4ccc(Cl)cc43)c1C2 : 0.95
COc1ccc2c(c1)/C(=C/c1[nH]nc3c1Cc1ccccc1-3)C(=O)N2 : 1.48
COc1ccc2c(c1)-c1n[nH]c(/C=C3\C(=O)Nc4ccc([N+](=O)[O-])cc43)c1C2 : 1.34
COc1cc2c(cc1OC)-c1n[nH]c(/C=C3\C(=O)Nc4ccccc43)c1C2 : 0.33

Q: # value lookup — system HeLa, readout log10 of IC50, item `COc1ccc2c(c1)-c1n[nH]c(/C=C3\C(=O)Nc4ccc(Cl)cc43)c1C2`
Result: 1.24
